Attribution: PubChem BioAssay (Tox21)

Biological target: Nuclear receptor subfamily 1 group I member 2 (Homo sapiens) (UniProt O75469)
Sequence (O75469 whole entry, looked up): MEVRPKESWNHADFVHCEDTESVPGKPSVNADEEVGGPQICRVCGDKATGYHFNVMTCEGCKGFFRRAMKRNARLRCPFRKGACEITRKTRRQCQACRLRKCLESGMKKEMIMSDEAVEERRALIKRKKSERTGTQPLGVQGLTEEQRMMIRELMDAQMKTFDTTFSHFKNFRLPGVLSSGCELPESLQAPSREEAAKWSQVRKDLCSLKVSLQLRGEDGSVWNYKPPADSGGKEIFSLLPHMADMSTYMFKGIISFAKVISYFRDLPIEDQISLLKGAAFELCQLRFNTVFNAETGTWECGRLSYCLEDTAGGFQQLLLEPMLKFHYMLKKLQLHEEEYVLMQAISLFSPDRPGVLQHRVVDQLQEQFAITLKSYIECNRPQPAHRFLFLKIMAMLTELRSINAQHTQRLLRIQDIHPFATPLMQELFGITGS
Assay: Human pregnane X receptor (PXR) small molecule agonists, qHTS assay (AID 1346982); note: nearly all actives have a fitted effect of over 35% in size
Conditions: PXR-Luc HepG2, CYP3A4 luciferase reporter, 24 h; series mostly up to 92.4 µM
Records with an inconclusive call do not appear. Activity calls are given as the source filed them. Calls come from the whole dose curve; as a rule, active = well fitted activation curve with a large enough effect in the repeat runs; inconclusive = weak or mixed curves; inactive = no such curve, though single readings can be large or run the other way.
Result category, one only: active, inactive

**Q:** For this compound, state the assay outcome: `CCN(C=O)CC`
**A:** inactive

**Q:** For this compound, state the assay outcome: `CN(C)C(=O)Oc1ccc[n+](C)c1`
**A:** inactive

**Q:** For this compound, state the assay outcome: `O=S(=O)(O)c1cc(O)c(O)c(S(=O)(=O)O)c1`
**A:** inactive

**Q:** For this compound, state the assay outcome: `CCOc1c(N2CCOCC2)cnn(C)c1=O`
**A:** inactive

**Q:** For this compound, state the assay outcome: `CCCCCC(=O)OCCc1ccccc1`
**A:** inactive

Then this compound:
**Q:** For this compound, state the assay outcome: `CCCCCCCCCCCCCCC(=O)O`
**A:** inactive
